The reported measurements were obtained from paper PMC5545170.

Biological target: GDH (glutamate dehydrogenase, GLUD1) (Homo sapiens, UniProt P00367, H507Y)
Sequence (P00367 54-558 H507Y): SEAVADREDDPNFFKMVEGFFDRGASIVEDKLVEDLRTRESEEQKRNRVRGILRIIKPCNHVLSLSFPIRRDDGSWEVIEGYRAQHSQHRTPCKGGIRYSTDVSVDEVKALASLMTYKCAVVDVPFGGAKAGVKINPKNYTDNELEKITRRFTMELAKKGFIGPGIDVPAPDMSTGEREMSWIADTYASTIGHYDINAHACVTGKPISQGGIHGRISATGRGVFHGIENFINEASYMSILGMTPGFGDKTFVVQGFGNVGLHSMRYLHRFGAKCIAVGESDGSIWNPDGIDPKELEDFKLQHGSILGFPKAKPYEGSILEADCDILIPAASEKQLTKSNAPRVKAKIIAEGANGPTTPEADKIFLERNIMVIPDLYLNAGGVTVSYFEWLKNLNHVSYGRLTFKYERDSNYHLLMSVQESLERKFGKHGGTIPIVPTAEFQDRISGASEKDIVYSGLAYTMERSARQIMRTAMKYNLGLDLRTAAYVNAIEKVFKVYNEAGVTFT
Assay: spectrophotometric GDH activity in […] cell homogenate
Measurement type: pIC50
A value of pIC50 is the negative decimal logarithm of a concentration given in moles per litre.

Chem smiles	Measurement type	Reported
Nc1nc2c(ncn2[C@@H]2O[C@H](COP(=O)(O)OP(=O)(O)OP(=O)(O)O)[C@@H](O)[C@H]2O)c(=O)[nH]1	pIC50	3.50

Moving on to the next compound.
Given `O=C(O[C@@H]1Cc2c(O)cc(O)cc2O[C@@H]1c1cc(O)c(O)c(O)c1)c1cc(O)c(O)c(O)c1` , respond with its pIC50.
5.99
